- experimental-details: NCI Yeast Anticancer Drug Screen. Data for the mlh1 rad18 strain (AID 175)
- measurement-parameters: S. cerevisiae mlh1 rad18 strain growth inhibition; at 50.0 µM (retest, dose inferred, filed as 5.0); active compounds read high
The panel holds about 79,000 compounds, 15% with a hit somewhere; the sample as a whole holds those more often.

[
  {
    "compound": "C=CC[P+](CC[P+](CC=C)(c1ccccc1)c1ccccc1)(c1ccccc1)c1ccccc1",
    "growth inhibition [%]": -1
  },
  {
    "compound": "COC(=O)c1cc[nH]c(=O)c1",
    "growth inhibition [%]": -122
  },
  {
    "compound": "CC(CCN)(CCN)[N+](=O)[O-]",
    "growth inhibition [%]": 9
  },
  {
    "compound": "Cc1ccc(/C=N\\NC(=S)N/N=C/c2ccc(C)cc2)cc1",
    "growth inhibition [%]": 98
  },
  {
    "compound": "CCSc1nc2ccc(N3C(=O)C=CC3=O)cc2s1",
    "growth inhibition [%]": 99
  },
  {
    "compound": "CN(C)CC1CCC/C(=C\\c2ccc(Cl)c(Cl)c2)C1=O (configuration not stated)",
    "growth inhibition [%]": 97
  },
  {
    "compound": "Brc1cc2c(c(Br)c1Br)C(Br)(Br)C(c1ccccc1)=N2",
    "growth inhibition [%]": 89
  },
  {
    "compound": "CCOc1ccc(/C=C2\\NC(=S)N(/C=C3\\C(=O)Oc4ccccc4C3=O)C2=O)cc1",
    "growth inhibition [%]": 94
  },
  {
    "compound": "C=CCOCC(C)OC(=O)C(C)C (configuration not stated)",
    "growth inhibition [%]": -117
  },
  {
    "compound": "COc1cc(C(=O)OCC(C)C)ccc1O",
    "growth inhibition [%]": 13
  },
  {
    "compound": "S=c1[nH]c2c(-c3ccccc3)cccc2s1",
    "growth inhibition [%]": 65
  },
  {
    "compound": "CN(C)C(=O)c1ccccc1SC(=S)NCc1ccccc1",
    "growth inhibition [%]": 98
  }
]

* * *

- experimental-details: NCI Yeast Anticancer Drug Screen. Data for the sgs1 mgt1 strain (AID 161);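 further: 0% = growth of cultures given vehicle only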
- measurement-parameters: S. cerevisiae sgs1 mgt1 strain, at 50.0 µM (retest, dose inferred, filed as 5.0)
Compounds without any hit were thinned out: in the full panel of roughly 79,000, 15% have a hit. The source made the active and inactive calls. No stated cut-off is given here; in the data, active means growth inhibition above about 70%; inactive means the rest.
Possible outcomes: active, inactive

[
  {
    "molecule": "CNCCN[C@@H]1c2cc3c(cc2[C@@H](c2cc(OC)c(O)c(OC)c2)[C@H]2C(=O)OC[C@@H]21)OCO3",
    "assigned-category": "active"
  },
  {
    "molecule": "CN1CCN(CCCN)CC1",
    "assigned-category": "inactive"
  },
  {
    "molecule": "Cc1ccc2c(n1)C(=O)C=CC2=O",
    "assigned-category": "active"
  },
  {
    "molecule": "COc1cc(-c2oc(C=Nc3ccccc3)c([N+](=O)[O-])c2-c2ccc(O)c(OC)c2)ccc1O",
    "assigned-category": "active"
  },
  {
    "molecule": "CC(CC(C)[C@H]1CCC2[C@H]3C(CC(=O)[C@@]21C)[C@@]1(C)CCC(O)C[C@H]1C[C@@H]3O)C(=O)O (stereo not given in full)",
    "assigned-category": "active"
  },
  {
    "molecule": "CCOC(=O)NC(NNc1ccc([N+](=O)[O-])cc1[N+](=O)[O-])(C(F)(F)F)C(F)(F)F",
    "assigned-category": "active"
  },
  {
    "molecule": "O=C(C(=Cn1c(=S)[nH]c2ccc([N+](=O)[O-])cc21)C(=O)c1ccccc1)c1ccccc1",
    "assigned-category": "inactive"
  },
  {
    "molecule": "C=CCc1cc(C(=O)OCC)cc(OC)c1O",
    "assigned-category": "active"
  },
  {
    "molecule": "Cc1cc2nc3n(c2cc1C)C(c1c(F)cccc1F)SC3 (stereo not given)",
    "assigned-category": "inactive"
  },
  {
    "molecule": "Cc1ccc(C)c(N2C/C(=N\\NC(=O)CC#N)C(c3nc4ccccc4s3)C(=O)C2=O)c1 (stereo not given)",
    "assigned-category": "inactive"
  }
]

* * *

- experimental-details: NCI Yeast Anticancer Drug Screen. Data for the mlh1 rad18 strain (AID 175)
- measurement-parameters: S. cerevisiae mlh1 rad18 strain growth inhibition; at 50.0 µM
About 79,000 compounds went through this panel and 15% of them were active in at least one assay; those are over-represented in the sample as a whole. The source made the active and inactive calls. Rule as the data show it: active = growth inhibition above about 70%; inactive = the rest.
Possible outcomes: 1 (yes) = active, 0 (no) = inactive

[
  {
    "compound": "CC(C)C1=C(O)c2ccccc2C(=O)C1=O",
    "assigned-category": "1 (yes)"
  },
  {
    "compound": "CC(=O)OCc1cc2c(s1)C(=O)c1sccc1C2=O",
    "assigned-category": "1 (yes)"
  },
  {
    "compound": "c1ccc2c(c1)C[N+]1(CCCCCCC1)C2",
    "assigned-category": "0 (no)"
  },
  {
    "compound": "CCOP(=O)(OCC)/C(C#N)=C/c1coc2cc(C)cc(C)c2c1=O",
    "assigned-category": "1 (yes)"
  },
  {
    "compound": "O=C(O)c1ccccc1NC(c1ccccc1)c1ccc2cccnc2c1O (configuration not stated)",
    "assigned-category": "1 (yes)"
  },
  {
    "compound": "FC(F)(F)c1nc2cc(SSc3cc4nc(C(F)(F)F)[nH]c4cc3Cl)c(Cl)cc2[nH]1",
    "assigned-category": "1 (yes)"
  },
  {
    "compound": "CC(=O)N=C1N(/C=C2\\C(=O)Oc3ccccc3C2=O)C(=O)/C(=C/c2cccc(Cl)c2Cl)N1C",
    "assigned-category": "0 (no)"
  },
  {
    "compound": "CC1=NN(c2ccccc2)C(=O)C12[C@H](c1ccccc1)C2(C#N)C#N (some centres not stated)",
    "assigned-category": "1 (yes)"
  },
  {
    "compound": "O=C1C=C(c2ccccc2)S(=O)(=O)c2c(O)cccc21",
    "assigned-category": "1 (yes)"
  },
  {
    "compound": "COc1ccc(C2c3cc4c(cc3OC(N3CCCC3)C2C)OCO4)c(OC)c1 (configuration not stated)",
    "assigned-category": "1 (yes)"
  },
  {
    "compound": "Cc1ccc(Cc2n[nH]c(=O)n2N2C(=O)c3ccccc3C2=O)cc1",
    "assigned-category": "0 (no)"
  },
  {
    "compound": "COc1cc(Nc2ccc(Oc3ccc(O)cc3)cc2)c2ncccc2c1",
    "assigned-category": "1 (yes)"
  },
  {
    "compound": "COc1ccc(-c2cc(-c3ccco3)c(C#N)c(=S)n2C2OC(CO)C(O)C(O)C2O)cc1 (configuration not stated)",
    "assigned-category": "0 (no)"
  },
  {
    "compound": "N#Cc1ncc(Cl)cc1[N+](=O)[O-]",
    "assigned-category": "1 (yes)"
  },
  {
    "compound": "CN=C1NS(=O)(=O)c2ccccc21",
    "assigned-category": "0 (no)"
  },
  {
    "compound": "CCOC(=O)NC(NNc1ccc([N+](=O)[O-])cc1[N+](=O)[O-])(C(F)(F)F)C(F)(F)F",
    "assigned-category": "1 (yes)"
  },
  {
    "compound": "C[C@H](CCC1=NCCN1)[C@H]1CC[C@H]2[C@@H]3CC[C@@H]4C[C@H](O)CC[C@]4(C)[C@H]3C[C@H](O)[C@]12C",
    "assigned-category": "1 (yes)"
  },
  {
    "compound": "CCCCCCCCCCCc1ccn[nH]1",
    "assigned-category": "1 (yes)"
  },
  {
    "compound": "Oc1ccc(-c2nnc(-c3ccc(Cl)cc3Cl)o2)cc1",
    "assigned-category": "0 (no)"
  },
  {
    "compound": "CC(=O)Nc1c([N+](=O)[O-])cc2c3c(cccc13)C=C2",
    "assigned-category": "0 (no)"
  },
  {
    "compound": "O=S(=O)(Nc1nccs1)c1ccc(N=Cc2cn(Cc3ccccc3)c3ccccc23)cc1",
    "assigned-category": "0 (no)"
  },
  {
    "compound": "Cc1cc(N(CCCCl)CCCCl)ccc1C=Nc1cccc(Cl)c1",
    "assigned-category": "0 (no)"
  }
]

* * *

- experimental-details: NCI Yeast Anticancer Drug Screen. Data for the mlh1 rad18 strain (AID 175)
- measurement-parameters: S. cerevisiae mlh1 rad18 strain growth inhibition; at 50.0 µM (retest, dose inferred, filed as 5.0); active compounds read high
Compounds without any hit were thinned out: in the full panel of roughly 79,000, 15% have a hit.
Hi, to clarify the labels: 1 covers growth inhibition from 80% upward, 0 covers anything below 80%.

[
  {
    "compound": "CCCCCCCCCCC[n+]1ccc(C#N)cc1",
    "assigned-category": 0
  },
  {
    "compound": "COc1ccc2nc(N/N=C/c3ccccn3)cc(C)c2c1",
    "assigned-category": 0
  },
  {
    "compound": "Cc1ccc(C(C)C)c(O)c1N/N=C/c1cc(Cl)ccc1O",
    "assigned-category": 1
  },
  {
    "compound": "O=C1NN(C2=NNC3(C(=O)N2)c2ccccc2-c2ccccc23)C(c2ccccc2)=N/C1=C/c1ccc(Cl)cc1",
    "assigned-category": 0
  },
  {
    "compound": "Nc1ccccc1-c1nc2c(ccc3ccccc32)[nH]1",
    "assigned-category": 0
  },
  {
    "compound": "Cc1cc(=O)oc2c3c(ccc12)OC(c1ccc(Br)cc1)CC3=O (stereo unspecified)",
    "assigned-category": 0
  }
]
